- Test system: monoamine oxidase A and B (MAO-A and MAO-B)
- assay_overview: Stability in the presence of monoamine oxidases (human liver mitochondria preparation)
- reported_conditions: human liver mitochondria 0.30 mg protein/mL, 37° C.
Answer each item with its documented CLint(MAO).
Express your answer in µL/min/mg, writing the number without its unit.

The recorded CLint(MAO) with monoamine oxidase A and B (MAO-A and MAO-B) for CN(C)CCc1c[nH]c2ccccc12 [DMT, N,N-dimethyltryptamine, reference compound] was 134.9

The recorded CLint(MAO) with monoamine oxidase A and B (MAO-A and MAO-B) for COc1ccc2[nH]cc(CCN(C)C)c2c1 [Compound 5-MeO-DMT, reference compound] was 43.6

* * *

- experimental_system: 5-HT1A (Homo sapiens)
- Construct: host or cells: CHO cells
- Sequence (P08908 1-422): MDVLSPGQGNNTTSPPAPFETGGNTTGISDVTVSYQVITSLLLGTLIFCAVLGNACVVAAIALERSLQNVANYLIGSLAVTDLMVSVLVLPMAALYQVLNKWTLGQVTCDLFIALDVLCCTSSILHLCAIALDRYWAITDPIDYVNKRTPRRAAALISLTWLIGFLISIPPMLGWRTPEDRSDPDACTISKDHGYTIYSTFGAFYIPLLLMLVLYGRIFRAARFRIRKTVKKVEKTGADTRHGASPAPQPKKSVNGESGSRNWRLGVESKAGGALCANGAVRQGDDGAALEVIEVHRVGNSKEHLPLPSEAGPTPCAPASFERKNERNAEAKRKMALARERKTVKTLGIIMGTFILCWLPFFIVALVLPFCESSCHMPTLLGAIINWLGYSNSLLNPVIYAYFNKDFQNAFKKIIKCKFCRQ
- assay_overview: FLIPR Ca2+ flux agonist assay at 5-HT1A
- Type: cell-based
- reported_conditions: Ca2+ flux, CHO cells, max dose
- Protocol: A solution of 250 mM probenecid in 1 mL FLIPR assay buffer was prepared fresh. This was combined with a fluorescent dye (Fluo-4 Direct™) to make a final assay concentration of 2.5 mM. […] The fluorescent dye was then added to the assay plate along with assay buffer to a final volume of 40 μL. […] 10 μL of references and compounds were then transferred from the compound plate into the cell plate and the fluorescent signal was read.
Hi! Just check whether 5-HT1A % Act @ Max Dose is below 40%. Below gives Fulfilled, equal or above gives Not fulfilled.

Say whether its 5-HT1A % Act @ Max Dose is strictly beneath 40%. Entry: "CNCCc1c[nH]c2cc(C)cc(O)c12" Fulfilled

Say whether its 5-HT1A % Act @ Max Dose is strictly beneath 40%. Entry: "CCNCCc1c[nH]c2cc(F)cc(O)c12" Fulfilled

Say whether its 5-HT1A % Act @ Max Dose is strictly beneath 40%. Entry: "CNCCc1cn(C(C)C)c2cc(F)cc(O)c12" Fulfilled

Say whether its 5-HT1A % Act @ Max Dose is strictly beneath 40%. Entry: "CCNCCc1c[nH]c2ccc(C)c(O)c12" Not fulfilled

Say whether its 5-HT1A % Act @ Max Dose is strictly beneath 40%. Entry: "Oc1cccc2[nH]cc(CCNC3CC3)c12" Not fulfilled

Say whether its 5-HT1A % Act @ Max Dose is strictly beneath 40%. Entry: "CNCCc1c[nH]c2ccc(F)c(O)c12" Not fulfilled

Say whether its 5-HT1A % Act @ Max Dose is strictly beneath 40%. Entry: "Oc1c(F)ccc2[nH]cc(CCNC3CC3)c12" Not fulfilled

Say whether its 5-HT1A % Act @ Max Dose is strictly beneath 40%. Entry: "NCCc1c[nH]c2c(F)ccc(O)c12" Fulfilled

Say whether its 5-HT1A % Act @ Max Dose is strictly beneath 40%. Entry: "CNCCc1c[nH]c2cc(F)cc(O)c12" Fulfilled

Say whether its 5-HT1A % Act @ Max Dose is strictly beneath 40%. Entry: "NCCc1c[nH]c2ccc(F)c(O)c12" Not fulfilled

* * *

- assay_overview: Metabolic stability in human liver microsomes (HLM)
- Set-up: dose or concentration left out as unconfirmed
- reported_conditions: both, human, pooled human liver microsomes, pH 7.4
Classes based on microsomal CLint: label 0 (below 20 µL/min/mg), label 1 (20 µL/min/mg to below 100 µL/min/mg), label 2 (100 µL/min/mg or more)

Classify this compound: CNCCc1c[nH]c2ccc(F)c(O)c12 [Compound 26] label 2

Classify this compound: C=CCNCCc1c[nH]c2cccc(O)c12 [Compound 23, 3-(2-(allylamino)ethyl)-1H-indol-4-ol] label 0

Classify this compound: CC(C)NCCc1c[nH]c2cccc(O)c12 [Compound 6] label 0

Classify this compound: CC(C)n1cc(CCN(C)C)c2c(O)cc(F)cc21 [Compound 10] label 0

Classify this compound: CCCNCCc1c[nH]c2cccc(O)c12 [Compound 3, 3-(2-(propylamino)ethyl)-1H-indol-4-ol] label 0

Classify this compound: NCCc1c[nH]c2c(F)ccc(O)c12 [Compound 32, 3-(2-aminoethyl)-7-fluoro-1H-indol-4-ol] label 1

Classify this compound: Oc1cccc2[nH]cc(CCNCCF)c12 [Compound 7] label 0

Classify this compound: CNCCc1c[nH]c2cc(F)cc(O)c12 [Compound 33] label 2

Classify this compound: CCNCCc1c[nH]c2ccc(C)c(O)c12 [Compound 37] label 0

Classify this compound: CCNCCc1c[nH]c2cccc(O)c12 [Compound 5, 3-(2-(ethylamino)ethyl)-1H-indol-4-ol] label 0

Classify this compound: Oc1c(F)ccc2[nH]cc(CCNC3CC3)c12 [Compound 27] label 1

Classify this compound: CC(C)NCCc1c[nH]c2ccc(F)c(O)c12 [Compound 35] label 1

Classify this compound: NCCc1c[nH]c2cccc(O)c12 [Compound 1, 3-(2-aminoethyl)-1H-indol-4-ol] label 1

Classify this compound: C#CCNCCc1c[nH]c2cccc(O)c12 [Compound 24] label 0

Classify this compound: CCCNCCc1c[nH]c2ccc(F)c(O)c12 [Compound 36] label 1

Classify this compound: NCCc1c[nH]c2ccc(F)c(O)c12 [Compound 30, 3-(2-aminoethyl)-5-fluoro-1H-indol-4-ol] label 2

Classify this compound: CCNCCc1c[nH]c2cc(F)cc(O)c12 [Compound 29] label 0

Classify this compound: CCNCCc1c[nH]c2ccc(F)c(O)c12 [Compound 28] label 1

Classify this compound: NCCc1c[nH]c2cc(F)cc(O)c12 [Compound 31, 3-(2-aminoethyl)-6-fluoro-1H-indol-4-ol] label 1

Classify this compound: CNCCc1c[nH]c2c(F)ccc(O)c12 [Compound 34] label 2

Classify this compound: CCNCCc1c[nH]c2ccc(Cl)c(O)c12 [Compound 38] label 2

Classify this compound: CNCCc1c[nH]c2cccc(O)c12 [Compound 2, 3-(2-(methylamino)ethyl)-1H-indol-4-ol] label 2

Classify this compound: Oc1cccc2[nH]cc(CCNC3CC3)c12 [Compound 4] label 0

Classify this compound: CNCCc1c[nH]c2cc(C)cc(O)c12 [Compound 39] label 2

Classify this compound: CNCCc1cn(C(C)C)c2cc(F)cc(O)c12 [Compound 12] label 0

* * *

- experimental_system: 5-HT2A (Homo sapiens)
- Sequence (P28223 whole entry): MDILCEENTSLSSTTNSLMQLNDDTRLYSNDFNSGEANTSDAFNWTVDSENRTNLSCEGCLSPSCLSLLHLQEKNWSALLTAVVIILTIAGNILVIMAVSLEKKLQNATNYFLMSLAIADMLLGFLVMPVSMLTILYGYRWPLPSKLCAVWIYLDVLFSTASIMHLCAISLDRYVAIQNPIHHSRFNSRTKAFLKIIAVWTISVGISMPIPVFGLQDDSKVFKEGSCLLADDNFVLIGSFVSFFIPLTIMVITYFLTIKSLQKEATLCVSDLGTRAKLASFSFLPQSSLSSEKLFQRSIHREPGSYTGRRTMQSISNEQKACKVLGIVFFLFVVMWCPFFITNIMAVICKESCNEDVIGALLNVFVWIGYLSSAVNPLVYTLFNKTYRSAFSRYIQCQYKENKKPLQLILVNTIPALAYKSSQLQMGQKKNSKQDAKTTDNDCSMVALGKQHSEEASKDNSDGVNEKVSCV
- assay_overview: FLIPR Ca2+ flux agonist assay at 5-HT2A
- Format: cell-based
- Set-up: host or cells: HEK293
- reported_conditions: Ca2+ flux, HEK293, max dose
test_readout: 5-HT2A % Act @ Max Dose (%)
Express your answer in %, writing the number without its unit.

The recorded 5-HT2A % Act @ Max Dose with 5-HT2A (Homo sapiens) for CN(C)CCc1c[nH]c2ccc(F)cc12 [Compound 5-F-DMT, reference compound] was 94.7

The recorded 5-HT2A % Act @ Max Dose with 5-HT2A (Homo sapiens) for CCNCCc1c[nH]c2ccc(Cl)c(O)c12 [Compound 38] was 103.70

The recorded 5-HT2A % Act @ Max Dose with 5-HT2A (Homo sapiens) for CCNCCc1c[nH]c2ccc(C)c(O)c12 [Compound 37] was 91.0

The recorded 5-HT2A % Act @ Max Dose with 5-HT2A (Homo sapiens) for CNCCc1cn(C(C)C)c2cc(F)cc(O)c12 [Compound 12] was 10.55

The recorded 5-HT2A % Act @ Max Dose with 5-HT2A (Homo sapiens) for CNCCc1c[nH]c2cc(C)cc(O)c12 [Compound 39] was 76.43

* * *

- experimental_system: 5-HT1A (Homo sapiens, UniProt P08908)
- Construct: host or cells: CHO cells
- Sequence (P08908 1-422): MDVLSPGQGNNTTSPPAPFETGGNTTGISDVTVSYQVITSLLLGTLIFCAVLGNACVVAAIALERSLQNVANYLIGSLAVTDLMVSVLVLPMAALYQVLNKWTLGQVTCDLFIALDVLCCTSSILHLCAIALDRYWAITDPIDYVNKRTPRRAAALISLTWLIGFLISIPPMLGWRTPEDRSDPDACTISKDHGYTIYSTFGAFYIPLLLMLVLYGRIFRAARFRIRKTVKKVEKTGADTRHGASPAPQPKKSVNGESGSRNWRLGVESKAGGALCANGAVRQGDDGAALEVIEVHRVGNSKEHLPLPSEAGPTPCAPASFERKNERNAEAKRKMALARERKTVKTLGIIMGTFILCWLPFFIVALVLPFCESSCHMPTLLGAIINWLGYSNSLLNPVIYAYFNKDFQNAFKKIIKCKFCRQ
- assay_overview: FLIPR Ca2+ flux agonist assay at 5-HT1A
- Format: cell-based
- reported_conditions: Ca2+ flux, CHO cells, max dose
Hi! Just check whether 5-HT1A % Act @ Max Dose is below 20%. Below gives Y, equal or above gives N.

Say whether its 5-HT1A % Act @ Max Dose is strictly beneath 20%. Entry: CC(C)NCCc1c[nH]c2cccc(O)c12 [Compound 6] Y

Say whether its 5-HT1A % Act @ Max Dose is strictly beneath 20%. Entry: CN(C)CCc1c[nH]c2ccc(F)cc12 [Compound 5-F-DMT, reference compound] N

Say whether its 5-HT1A % Act @ Max Dose is strictly beneath 20%. Entry: NCCc1c[nH]c2cccc(O)c12 [Compound 1, 3-(2-aminoethyl)-1H-indol-4-ol] N

Say whether its 5-HT1A % Act @ Max Dose is strictly beneath 20%. Entry: CC(C)NCCc1c[nH]c2ccc(F)c(O)c12 [Compound 35] N

Say whether its 5-HT1A % Act @ Max Dose is strictly beneath 20%. Entry: CCCNCCc1c[nH]c2ccc(F)c(O)c12 [Compound 36] Y

Say whether its 5-HT1A % Act @ Max Dose is strictly beneath 20%. Entry: COc1ccc2[nH]cc(CCN(C)C)c2c1 [Compound 5-MeO-DMT, reference compound] N

Say whether its 5-HT1A % Act @ Max Dose is strictly beneath 20%. Entry: CC(C)n1cc(CCN(C)C)c2c(O)cc(F)cc21 [Compound 10] Y

Say whether its 5-HT1A % Act @ Max Dose is strictly beneath 20%. Entry: CNCCc1c[nH]c2c(F)ccc(O)c12 [Compound 34] N

Say whether its 5-HT1A % Act @ Max Dose is strictly beneath 20%. Entry: CCCNCCc1c[nH]c2cccc(O)c12 [Compound 3, 3-(2-(propylamino)ethyl)-1H-indol-4-ol] Y

Say whether its 5-HT1A % Act @ Max Dose is strictly beneath 20%. Entry: NCCc1c[nH]c2cc(F)cc(O)c12 [Compound 31, 3-(2-aminoethyl)-6-fluoro-1H-indol-4-ol] Y

Say whether its 5-HT1A % Act @ Max Dose is strictly beneath 20%. Entry: CCN(C)CCc1c[nH]c2ccccc12 [MET, N-methyl-N-ethyltryptamine, reference compound] N

Say whether its 5-HT1A % Act @ Max Dose is strictly beneath 20%. Entry: CN(C)CCc1c[nH]c2cccc(O)c12 [Psilocin, psilocin, reference compound] Y

Say whether its 5-HT1A % Act @ Max Dose is strictly beneath 20%. Entry: C#CCNCCc1c[nH]c2cccc(O)c12 [Compound 24] Y

Say whether its 5-HT1A % Act @ Max Dose is strictly beneath 20%. Entry: CCCN(CC)CCc1c[nH]c2ccccc12 [EPT, N-ethyl-N-propyltryptamine, reference compound] N

Say whether its 5-HT1A % Act @ Max Dose is strictly beneath 20%. Entry: CCNCCc1c[nH]c2ccc(Cl)c(O)c12 [Compound 38] N

Say whether its 5-HT1A % Act @ Max Dose is strictly beneath 20%. Entry: CCNCCc1c[nH]c2ccc(F)c(O)c12 [Compound 28] N

Say whether its 5-HT1A % Act @ Max Dose is strictly beneath 20%. Entry: Oc1cccc2[nH]cc(CCNCCF)c12 [Compound 7] N
